In this section, each of the binders is paired with its reported koff.
# TARGET_OF_ASSAY: T1, mouse B7-H4 (recombinant, BLI) (mouse, UniProt Q7TSP5 29-256, limits assumed)
# T1 construct: also called murine B7-H4
# T1 sequence: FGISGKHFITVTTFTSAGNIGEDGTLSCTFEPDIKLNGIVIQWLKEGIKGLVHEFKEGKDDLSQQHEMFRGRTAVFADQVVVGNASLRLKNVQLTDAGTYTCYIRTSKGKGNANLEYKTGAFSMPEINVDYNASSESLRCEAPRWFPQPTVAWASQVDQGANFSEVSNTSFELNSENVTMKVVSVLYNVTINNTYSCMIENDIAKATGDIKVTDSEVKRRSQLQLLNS
# PROTOCOL_DESCRIPTION: BLI, antigen on Protein A tips;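 note: Anti-B7-H4 antibodies assessed for affinity toward the B7-H4 extracellular domain using biolayer interferometry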
Number in s⁻¹, nothing else.

Below are worked cases with known answers.
[
  {
    "BINDER": "B7-H4 antibody 15461 (antibody, human IgG1, kappa, V domains shown, human IgG1/kappa) VH: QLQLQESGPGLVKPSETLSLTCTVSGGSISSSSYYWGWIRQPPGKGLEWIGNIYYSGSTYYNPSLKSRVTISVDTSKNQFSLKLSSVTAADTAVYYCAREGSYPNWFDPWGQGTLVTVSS VL: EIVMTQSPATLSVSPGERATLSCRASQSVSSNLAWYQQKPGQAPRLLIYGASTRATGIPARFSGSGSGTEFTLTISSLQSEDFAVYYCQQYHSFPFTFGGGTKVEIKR",
    "QUANTITY_UNIT": "s⁻¹",
    "koff": 0.017
  },
  {
    "BINDER": "B7-H4 antibody 20500 (antibody, human IgG1, kappa, V domains shown, human IgG1/kappa) VH: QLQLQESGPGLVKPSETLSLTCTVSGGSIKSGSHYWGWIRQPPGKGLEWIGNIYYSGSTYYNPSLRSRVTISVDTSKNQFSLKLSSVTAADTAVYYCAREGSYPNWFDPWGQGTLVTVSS VL: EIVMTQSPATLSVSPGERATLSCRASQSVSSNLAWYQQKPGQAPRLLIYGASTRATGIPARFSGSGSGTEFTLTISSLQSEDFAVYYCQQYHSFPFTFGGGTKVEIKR",
    "QUANTITY_UNIT": "s⁻¹",
    "koff": 0.00336
  }
]

Here is the next item to consider.
koff measured on B7-H4 antibody 20502 (antibody, V domains shown, human IgG1/kappa) VH: QLQLQESGPGLVKPSETLSLTCTVSGGSIKSGSYYWGWIRQPPGKGLEWIGNIYYSGSTYYNPSLRSRVTISVDTSKNQFSLKLSSVTAADTAVYYCAREGSYPNQFDPWGQGTLVTVSS VL: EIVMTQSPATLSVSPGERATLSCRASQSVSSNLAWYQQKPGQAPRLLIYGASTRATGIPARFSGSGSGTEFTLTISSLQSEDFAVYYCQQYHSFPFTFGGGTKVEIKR = 0.00213
